Biological target: T1, human SEMA4D, full length, on CHO-K1 cells (CHO-K1 hSEMA4D) (human, UniProt Q92854 22-862)
T1 construct: whole, on cells; also called human SEMA4D recombinant cells
T1 sequence (looked up): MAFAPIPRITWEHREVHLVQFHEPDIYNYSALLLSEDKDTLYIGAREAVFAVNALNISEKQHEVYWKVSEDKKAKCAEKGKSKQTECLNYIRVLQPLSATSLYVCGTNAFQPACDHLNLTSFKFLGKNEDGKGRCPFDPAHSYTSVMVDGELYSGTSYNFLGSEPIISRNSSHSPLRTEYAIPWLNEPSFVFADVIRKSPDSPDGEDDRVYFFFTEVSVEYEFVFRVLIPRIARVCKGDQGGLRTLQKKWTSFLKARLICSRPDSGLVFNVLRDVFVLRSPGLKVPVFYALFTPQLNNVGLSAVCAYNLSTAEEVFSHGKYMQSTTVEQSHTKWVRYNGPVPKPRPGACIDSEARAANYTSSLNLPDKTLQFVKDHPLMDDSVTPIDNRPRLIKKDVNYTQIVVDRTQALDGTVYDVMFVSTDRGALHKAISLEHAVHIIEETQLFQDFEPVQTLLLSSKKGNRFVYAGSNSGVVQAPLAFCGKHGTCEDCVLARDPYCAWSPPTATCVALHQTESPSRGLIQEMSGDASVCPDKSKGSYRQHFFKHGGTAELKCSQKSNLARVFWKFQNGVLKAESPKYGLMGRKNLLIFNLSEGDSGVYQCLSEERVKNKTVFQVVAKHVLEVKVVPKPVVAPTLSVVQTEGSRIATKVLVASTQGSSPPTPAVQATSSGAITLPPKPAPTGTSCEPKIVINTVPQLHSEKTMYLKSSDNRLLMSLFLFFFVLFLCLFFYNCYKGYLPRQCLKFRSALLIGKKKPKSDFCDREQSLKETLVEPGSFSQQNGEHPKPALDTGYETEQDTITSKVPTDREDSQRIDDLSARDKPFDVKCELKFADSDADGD
Test: FACS, CHO-K1 hSEMA4D cells; Ab 0.0213 nM
Procedure: The medium was aspirated, the cells were washed once with PBS buffer (purchased from Invitrogen), and then treated with cell dissociation fluid (TrypLE™ Express Enzyme, purchased from Life technology), and the cells were collected. After the cells counted, the cells were washed once with PBS phosphate buffer, and diluted to 3×10⁶ cells per milliliter, and added to the 96-well FACS reaction plate as 100 μL per well. […]
The binders listed here are annotated with their MFI.
Give your answer as a number; write no unit.

Binder: 37F11F9 (antibody, V domains shown, Mouse monoclonal antibody purified from hybridoma supernatant on protein A) VH: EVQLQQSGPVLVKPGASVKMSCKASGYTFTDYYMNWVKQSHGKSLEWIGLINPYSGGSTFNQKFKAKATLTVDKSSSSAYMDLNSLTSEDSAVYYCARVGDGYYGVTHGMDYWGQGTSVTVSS VL: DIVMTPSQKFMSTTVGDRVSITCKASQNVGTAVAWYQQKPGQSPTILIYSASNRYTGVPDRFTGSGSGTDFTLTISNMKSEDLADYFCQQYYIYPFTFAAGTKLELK
MFI: 101

What measured MFI goes with 37C4F7 (antibody, V domains shown, Mouse monoclonal antibody purified from hybridoma supernatant on protein A) VH: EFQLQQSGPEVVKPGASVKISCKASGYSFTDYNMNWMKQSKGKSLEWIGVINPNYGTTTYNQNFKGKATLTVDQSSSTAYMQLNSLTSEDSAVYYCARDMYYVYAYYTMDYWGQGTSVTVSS VL: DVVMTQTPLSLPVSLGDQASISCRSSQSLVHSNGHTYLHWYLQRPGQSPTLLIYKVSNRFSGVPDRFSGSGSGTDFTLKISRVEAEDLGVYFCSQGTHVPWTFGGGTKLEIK ? 76.6
